Biological target: Estrogen receptor (Homo sapiens)
Sequence (whole entry): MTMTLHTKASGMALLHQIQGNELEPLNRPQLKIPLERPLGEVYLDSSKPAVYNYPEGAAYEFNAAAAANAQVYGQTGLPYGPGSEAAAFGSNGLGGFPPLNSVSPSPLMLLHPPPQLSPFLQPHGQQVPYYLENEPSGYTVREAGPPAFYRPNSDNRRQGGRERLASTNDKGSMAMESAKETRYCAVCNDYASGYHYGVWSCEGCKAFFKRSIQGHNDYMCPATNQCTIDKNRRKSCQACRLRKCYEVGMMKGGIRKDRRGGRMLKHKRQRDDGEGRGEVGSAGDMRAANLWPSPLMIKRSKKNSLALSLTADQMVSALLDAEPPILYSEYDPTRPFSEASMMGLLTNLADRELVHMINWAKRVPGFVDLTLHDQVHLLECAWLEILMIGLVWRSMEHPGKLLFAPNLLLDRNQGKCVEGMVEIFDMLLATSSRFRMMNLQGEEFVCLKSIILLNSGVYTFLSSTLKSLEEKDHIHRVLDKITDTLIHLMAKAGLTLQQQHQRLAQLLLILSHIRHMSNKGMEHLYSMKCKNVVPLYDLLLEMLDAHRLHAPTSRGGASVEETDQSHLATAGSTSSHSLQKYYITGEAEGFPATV
Experiment: Agonist activity at ERalpha (unknown origin) expressed in human HepG2 cells assessed as transcriptional activation after 24 hrs by ERE-luciferase reporter gene assay relative to 17beta-estradiol
Format: cell-based
value_kind: Efficacy (%)
Quick note: give the figure in %, leave out the unit.

Need Efficacy, item Oc1ccc(C(=Nc2ccccc2Cl)c2ccc(O)cc2)cc1
104

Next:
Entry Cc1cccc(/N=C(\c2ccc(O)cc2)c2ccc(O)cc2O)c1 has what Efficacy?
95

Could you tell me which Efficacy is on file for Oc1ccc(N=C(c2ccc(O)cc2)c2ccc(O)cc2)cc1 ?
95

For Cc1ccccc1N=C(c1ccc(O)cc1)c1ccc(O)cc1 , what is its reported Efficacy?
103

Look up Efficacy for this compound: Oc1ccc(C(=Nc2cccc(Cl)c2)c2ccc(O)cc2)cc1
102

Any idea what its Efficacy is? The compound is Cc1ccccc1/N=C(\c1ccc(O)cc1)c1ccc(O)cc1O
111

Bench note: what Efficacy did Oc1ccc(/C(=N\c2cccc(Cl)c2)c2ccc(O)cc2O)cc1 show?
117

Could you tell me which Efficacy is on file for Oc1ccc(/C(=N\c2ccccc2Cl)c2ccc(O)cc2O)cc1 ?
113

Quick check: Efficacy of Cc1cccc(N=C(c2ccc(O)cc2)c2ccc(O)cc2)c1 ?
109

Could you tell me which Efficacy is on file for COc1ccc(/N=C(\c2ccc(O)cc2)c2ccc(O)cc2O)cc1 ?
102

Can you look up the measured Efficacy of Oc1ccc(/N=C(\c2ccc(O)cc2)c2ccc(O)cc2O)cc1 for me?
97

# query: Efficacy of entry Cc1ccc(/N=C(\c2ccc(O)cc2)c2ccc(O)cc2O)cc1
103

Reported Efficacy for Oc1ccc(C(=Nc2ccc(Cl)cc2)c2ccc(O)cc2)cc1 : what is it?
114

// query Efficacy value for entry Oc1ccc(C(=Nc2ccc(Br)cc2)c2ccc(O)cc2)cc1
105

Give its Efficacy value. Item: Oc1ccc(C(=Nc2ccc(F)cc2)c2ccc(O)cc2)cc1
114

Where do the numbers come from? From ChEMBL document CHEMBL3232883.
